# System name: T1, human G-CSF receptor (human, UniProt Q99062 25-836)
# T1 sequence (looked up): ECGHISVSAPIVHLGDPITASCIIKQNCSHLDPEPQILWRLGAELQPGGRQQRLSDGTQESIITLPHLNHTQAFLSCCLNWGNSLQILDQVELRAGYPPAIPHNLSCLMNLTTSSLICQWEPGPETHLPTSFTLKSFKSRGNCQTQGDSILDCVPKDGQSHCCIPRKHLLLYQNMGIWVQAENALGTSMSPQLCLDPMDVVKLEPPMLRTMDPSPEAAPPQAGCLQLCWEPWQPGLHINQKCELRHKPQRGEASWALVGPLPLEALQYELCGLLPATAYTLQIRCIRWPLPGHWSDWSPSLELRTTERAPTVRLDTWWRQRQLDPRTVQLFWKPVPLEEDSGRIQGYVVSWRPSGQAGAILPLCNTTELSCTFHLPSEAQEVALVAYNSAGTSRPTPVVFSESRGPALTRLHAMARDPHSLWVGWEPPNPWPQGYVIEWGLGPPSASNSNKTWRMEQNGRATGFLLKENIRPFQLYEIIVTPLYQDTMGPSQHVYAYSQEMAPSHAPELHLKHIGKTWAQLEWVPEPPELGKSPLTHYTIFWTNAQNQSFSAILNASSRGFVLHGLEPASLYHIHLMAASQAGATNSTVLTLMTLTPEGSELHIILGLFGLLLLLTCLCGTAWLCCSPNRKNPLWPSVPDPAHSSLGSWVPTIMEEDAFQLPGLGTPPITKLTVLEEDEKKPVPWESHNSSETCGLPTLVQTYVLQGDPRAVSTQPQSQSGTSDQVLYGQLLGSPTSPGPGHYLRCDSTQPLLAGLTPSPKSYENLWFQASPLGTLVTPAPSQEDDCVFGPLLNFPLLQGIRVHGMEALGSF
# Protocol description: cell-based or functional assay
Metric: EC50 (% of hG-CSF) conjugated to SPA-PEG 12000

// below: answered binders
G-CSF variant K16/34/40R Q70K Q90K conjugated to SPA-PEG 12000 (ligand, conjugated to SPA-PEG 12000) TPLGPASSLPQSFLLRCLEQVRKIQGDGAALQERLCATYRLCHPEELVLLGHSLGIPWAPLSSCPSQALKLAGCLSQLHSGLFLYQGLLKALEGISPELGPTLDTLQLDVADFATTIWQQMEELGMAPALQPTQGAMPAFASAFQRRAGGVLVASHLQSFLEVSYRVLRHLAQP: 8 % of hG-CSF
G-CSF variant K16/34/40R T105K S159K conjugated to SPA-PEG 12000 (ligand, conjugated to SPA-PEG 12000) TPLGPASSLPQSFLLRCLEQVRKIQGDGAALQERLCATYRLCHPEELVLLGHSLGIPWAPLSSCPSQALQLAGCLSQLHSGLFLYQGLLQALEGISPELGPTLDKLQLDVADFATTIWQQMEELGMAPALQPTQGAMPAFASAFQRRAGGVLVASHLQKFLEVSYRVLRHLAQP: 6 % of hG-CSF
G-CSF variant K16/34/40R Q90K T105K conjugated to SPA-PEG 12000 (ligand, conjugated to SPA-PEG 12000) TPLGPASSLPQSFLLRCLEQVRKIQGDGAALQERLCATYRLCHPEELVLLGHSLGIPWAPLSSCPSQALQLAGCLSQLHSGLFLYQGLLKALEGISPELGPTLDKLQLDVADFATTIWQQMEELGMAPALQPTQGAMPAFASAFQRRAGGVLVASHLQSFLEVSYRVLRHLAQP: 1 % of hG-CSF

// batch mode: one EC50 (% of hG-CSF) conjugated to SPA-PEG 12000 value per listed entry
1. G-CSF variant K16/34/40R conjugated to SPA-PEG 12000 (ligand, conjugated to SPA-PEG 12000) TPLGPASSLPQSFLLRCLEQVRKIQGDGAALQERLCATYRLCHPEELVLLGHSLGIPWAPLSSCPSQALQLAGCLSQLHSGLFLYQGLLQALEGISPELGPTLDTLQLDVADFATTIWQQMEELGMAPALQPTQGAMPAFASAFQRRAGGVLVASHLQSFLEVSYRVLRHLAQP
2. G-CSF variant K16/34/40R Q90K T105K S159K conjugated to SPA-PEG 12000 (ligand, conjugated to SPA-PEG 12000) TPLGPASSLPQSFLLRCLEQVRKIQGDGAALQERLCATYRLCHPEELVLLGHSLGIPWAPLSSCPSQALQLAGCLSQLHSGLFLYQGLLKALEGISPELGPTLDKLQLDVADFATTIWQQMEELGMAPALQPTQGAMPAFASAFQRRAGGVLVASHLQKFLEVSYRVLRHLAQP

Completion:
["10 % of hG-CSF", "1 % of hG-CSF"]
